# Lookup of reported viability, T/C keyed by entry
System: ASPS-1 complex tumor spheroids, viability
assay.details: Anticancer human tumor ASPS-1 cell line growth inhibition
test.context: second compound 0.3 µM; first compound 0.3 µM; active compounds read low
property.measured: viability, T/C (%)

>>> measured("O=C(c1cc(Cc2n[nH]c(=O)c3ccccc23)ccc1F)N1CCN(C(=O)C2CC2)CC1 + CC[C@@]1(O)C(=O)OCc2c1cc1n(c2=O)Cc2cc3c(CN(C)C)c(O)ccc3nc2-1")
45.4
>>> measured("CNCc1ccc(-c2cc(-c3nc(-c4ccc(S(=O)(=O)C(C)C)cc4)cnc3N)on2)cc1 + CC[C@@]1(O)C(=O)OCc2c1cc1n(c2=O)Cc2cc3c(CN(C)C)c(O)ccc3nc2-1")
23.4
>>> measured("Cn1ncnc1[C@H]1c2n[nH]c(=O)c3cc(F)cc(c23)N[C@@H]1c1ccc(F)cc1 + CC[C@@]1(O)C(=O)OCc2c1cc1n(c2=O)Cc2cc3c(CN(C)C)c(O)ccc3nc2-1")
41.3
>>> measured("Cc1sc2c(c1C)C(c1ccc(Cl)cc1)=NC(CC(=O)Nc1ccc(O)cc1)c1nnc(C)n1-2 (centres undefined) + CC[C@@]1(O)C(=O)OCc2c1cc1n(c2=O)Cc2cc3c(CN(C)C)c(O)ccc3nc2-1")
55.3

----------
# Lookup of reported viability, T/C keyed by entry
Tested on: ASPS-1 complex tumor spheroids, viability
assay.details: Anticancer human tumor ASPS-1 cell line growth inhibition
test.context: second compound 31.6 µM; first compound 0.1 µM; active compounds read low
property.measured: viability, T/C (%)

>>> measured("COc1cc(C)[nH]c(=O)c1CN1CCc2c(Cl)cc(C(OC)C3COC3)c(Cl)c2C1=O (stereo unspecified) + Cn1nnc2c(C(N)=O)ncn2c1=O")
82.5
>>> measured("CC1COCCN1c1cc(-c2ccnn2C)c2ccnc(-c3ccn[nH]3)c2n1 (stereo unspecified) + Cn1nnc2c(C(N)=O)ncn2c1=O")
31.1
>>> measured("COc1ccc([C@@H](O)c2cc(-c3ncnc4cc(N5CCOCC5)ccc34)c(F)cc2Cl)nn1 + Cn1nnc2c(C(N)=O)ncn2c1=O")
83.7
>>> measured("Cc1cc(C)c(CNC(=O)c2cc(-c3ccc(CN4CCOCC4)cc3)cc3c2cnn3C2CCCC2)c(=O)[nH]1 + Cn1nnc2c(C(N)=O)ncn2c1=O")
83.7
>>> measured("[2H]c1nc(C)nc([2H])c1-c1cc(NC[C@@H](C)c2cccc3c(C(=O)NC)ccnc23)ncn1 + Cn1nnc2c(C(N)=O)ncn2c1=O")
80.2
>>> measured("CC(C)n1c(=O)n(C)c2cnc3cc(F)c(-c4ccc(OCCCN5CCCCC5)nc4)cc3c21 + Cn1nnc2c(C(N)=O)ncn2c1=O")
78.1

----------
System: ASPS-1 complex tumor spheroids, viability
assay.details: Anticancer human tumor ASPS-1 cell line growth inhibition; active means viability on the fitted dose curve at most 10% of control; inactive means the rest;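 note: spheroids exposed to agents for 7 days after 3 days of growth; 100% = DMSO vehicle treated spheroids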
test.context: second compound 0.0003 µM; first compound 3 µM
Outcome codes: active, inactive

>>> assigned_class("Cc1sc2c(c1C)C(c1ccc(Cl)cc1)=NC(CC(=O)Nc1ccc(O)cc1)c1nnc(C)n1-2 (centres undefined) + COc1cc2c(cc1O)CCNC21CSC2c3c(OC(C)=O)c(C)c4c(c3C(COC1=O)N1C(O)C3Cc5cc(C)c(OC)c(O)c5C(C21)N3C)OCO4")
"inactive"
>>> assigned_class("O=C(c1cc(Cc2n[nH]c(=O)c3ccccc23)ccc1F)N1CCN(C(=O)C2CC2)CC1 + COc1cc2c(cc1O)CCNC21CSC2c3c(OC(C)=O)c(C)c4c(c3C(COC1=O)N1C(O)C3Cc5cc(C)c(OC)c(O)c5C(C21)N3C)OCO4")
"inactive"
>>> assigned_class("Cn1ncnc1[C@H]1c2n[nH]c(=O)c3cc(F)cc(c23)N[C@@H]1c1ccc(F)cc1 + COc1cc2c(cc1O)CCNC21CSC2c3c(OC(C)=O)c(C)c4c(c3C(COC1=O)N1C(O)C3Cc5cc(C)c(OC)c(O)c5C(C21)N3C)OCO4")
"inactive"
>>> assigned_class("CNCc1ccc(-c2cc(-c3nc(-c4ccc(S(=O)(=O)C(C)C)cc4)cnc3N)on2)cc1 + COc1cc2c(cc1O)CCNC21CSC2c3c(OC(C)=O)c(C)c4c(c3C(COC1=O)N1C(O)C3Cc5cc(C)c(OC)c(O)c5C(C21)N3C)OCO4")
"active"

----------
Tested on: ASPS-1 complex tumor spheroids, viability
assay.details: Anticancer human tumor ASPS-1 cell line growth inhibition;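 note: spheroids exposed to agents for 7 days after 3 days of growth; 100% = DMSO vehicle treated spheroids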
test.context: second compound 30 pM; first compound 0.3 µM; active compounds read low
property.measured: viability, T/C

>>> measured("Cc1sc2c(c1C)C(c1ccc(Cl)cc1)=NC(CC(=O)Nc1ccc(O)cc1)c1nnc(C)n1-2 (centres undefined) + COc1cc2c(cc1O)CCNC21CSC2c3c(OC(C)=O)c(C)c4c(c3C(COC1=O)N1C(O)C3Cc5cc(C)c(OC)c(O)c5C(C21)N3C)OCO4")
"103%"
>>> measured("O=C(c1cc(Cc2n[nH]c(=O)c3ccccc23)ccc1F)N1CCN(C(=O)C2CC2)CC1 + COc1cc2c(cc1O)CCNC21CSC2c3c(OC(C)=O)c(C)c4c(c3C(COC1=O)N1C(O)C3Cc5cc(C)c(OC)c(O)c5C(C21)N3C)OCO4")
"112%"
>>> measured("CNCc1ccc(-c2cc(-c3nc(-c4ccc(S(=O)(=O)C(C)C)cc4)cnc3N)on2)cc1 + COc1cc2c(cc1O)CCNC21CSC2c3c(OC(C)=O)c(C)c4c(c3C(COC1=O)N1C(O)C3Cc5cc(C)c(OC)c(O)c5C(C21)N3C)OCO4")
"74.3%"
>>> measured("Cn1ncnc1[C@H]1c2n[nH]c(=O)c3cc(F)cc(c23)N[C@@H]1c1ccc(F)cc1 + COc1cc2c(cc1O)CCNC21CSC2c3c(OC(C)=O)c(C)c4c(c3C(COC1=O)N1C(O)C3Cc5cc(C)c(OC)c(O)c5C(C21)N3C)OCO4")
"101%"

----------
System: ASPS-1 complex tumor spheroids, viability
assay.details: Anticancer human tumor ASPS-1 cell line growth inhibition;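 note: spheroids exposed to agents for 7 days after 3 days of growth; 100% = DMSO vehicle treated spheroids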
test.context: second compound 94.9 pM; first compound 3.16 µM; active compounds read low
property.measured: viability, T/C

>>> measured("COc1ccc([C@@H](O)c2cc(-c3ncnc4cc(N5CCOCC5)ccc34)c(F)cc2Cl)nn1 + COc1cc2c(cc1O)CCNC21CSC2c3c(OC(C)=O)c(C)c4c(c3C(COC1=O)N1C(O)C3Cc5cc(C)c(OC)c(O)c5C(C21)N3C)OCO4")
"62.6%"
>>> measured("CC(C)n1c(=O)n(C)c2cnc3cc(F)c(-c4ccc(OCCCN5CCCCC5)nc4)cc3c21 + COc1cc2c(cc1O)CCNC21CSC2c3c(OC(C)=O)c(C)c4c(c3C(COC1=O)N1C(O)C3Cc5cc(C)c(OC)c(O)c5C(C21)N3C)OCO4")
"64.4%"
>>> measured("CC1COCCN1c1cc(-c2ccnn2C)c2ccnc(-c3ccn[nH]3)c2n1 (centres undefined) + COc1cc2c(cc1O)CCNC21CSC2c3c(OC(C)=O)c(C)c4c(c3C(COC1=O)N1C(O)C3Cc5cc(C)c(OC)c(O)c5C(C21)N3C)OCO4")
"40.6%"
>>> measured("Cc1cc(C)c(CNC(=O)c2cc(-c3ccc(CN4CCOCC4)cc3)cc3c2cnn3C2CCCC2)c(=O)[nH]1 + COc1cc2c(cc1O)CCNC21CSC2c3c(OC(C)=O)c(C)c4c(c3C(COC1=O)N1C(O)C3Cc5cc(C)c(OC)c(O)c5C(C21)N3C)OCO4")
"93.5%"

----------
Test system: ASPS-1 complex tumor spheroids, viability
assay.details: Anticancer human tumor ASPS-1 cell line growth inhibition;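 note: spheroids exposed to agents for 7 days after 3 days of growth; 100% = DMSO vehicle treated spheroids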
test.context: second compound 1 µM; first compound 1 µM; active compounds read low
# Lookup of reported viability, T/C keyed by entry
property.measured: viability, T/C (%)

>>> measured("COc1cc(C)[nH]c(=O)c1CN1CCc2c(Cl)cc(C(OC)C3COC3)c(Cl)c2C1=O (stereo unspecified) + Cn1nnc2c(C(N)=O)ncn2c1=O")
98.6
>>> measured("CC1COCCN1c1cc(-c2ccnn2C)c2ccnc(-c3ccn[nH]3)c2n1 (stereo unspecified) + Cn1nnc2c(C(N)=O)ncn2c1=O")
41.1
>>> measured("Cc1cc(C)c(CNC(=O)c2cc(-c3ccc(CN4CCOCC4)cc3)cc3c2cnn3C2CCCC2)c(=O)[nH]1 + Cn1nnc2c(C(N)=O)ncn2c1=O")
92.7
>>> measured("CC(C)n1c(=O)n(C)c2cnc3cc(F)c(-c4ccc(OCCCN5CCCCC5)nc4)cc3c21 + Cn1nnc2c(C(N)=O)ncn2c1=O")
102
>>> measured("COc1ccc([C@@H](O)c2cc(-c3ncnc4cc(N5CCOCC5)ccc34)c(F)cc2Cl)nn1 + Cn1nnc2c(C(N)=O)ncn2c1=O")
101
>>> measured("[2H]c1nc(C)nc([2H])c1-c1cc(NC[C@@H](C)c2cccc3c(C(=O)NC)ccnc23)ncn1 + Cn1nnc2c(C(N)=O)ncn2c1=O")
101
